assay: Cytotoxicity Determination; assay type: cell-based; conditions: human, HEp-2 cells, without addition of virus, CCK-8 readout, bins (Table 4: greater than 100 μM; Table 5: equal to or less than 100 μM and greater than 10 μM), read-out: 50% cytotoxicity concentration (CC50)
Test Readout: CC50 at 5 days

COc1ccc(C(=O)NCC(=O)N/N=C(\C)c2csc3ccc(F)cc23)cc1OC [Compound 422]: 10 to 100 µM
COc1cc(C(=O)NCC(=O)c2cc(OC)c(OC)c(-c3csc4c(F)cccc34)n2)ccc1OCCO [Compound 2108]: > 100 µM
CN(C)c1ccc(C(=O)NCC(=O)N/N=C/c2csc3ccccc23)cc1 [Compound 237]: 10 to 100 µM
COc1ccc(C(=O)NCC(=O)c2ccc(OC)c(-c3ccc(F)cc3)n2)cc1OC [Compound 1515]: > 100 µM
COc1ccc2c(c1)/C(=N/NC(=O)CNC(=O)c1ccc(OC)c(OC)c1)CC2 [Compound 424]: > 100 µM

Please fill in: CC50 at 5 days reported for COc1cc(C(=O)NCC(=O)c2ccc(OC)c(-c3ccc(Cl)c(F)c3)n2)ccc1OCCO [Compound 1612] = > 100 µM

----------
assay: Cytotoxicity Determination; assay type: cell-based; conditions: human, HEp-2 cells, without addition of virus, CCK-8 readout, bins (Table 4: greater than 100 μM; Table 5: equal to or less than 100 μM and greater than 10 μM), read-out: 50% cytotoxicity concentration (CC50)
Test Readout: CC50 at 5 days

As a guide, the following entries are already answered.
CCc1cc(C(=O)CNC(=O)c2ccc(OCCO)c(OC)c2)nc(-c2csc3c(F)cccc23)c1OC: 10 to 100 µM
COc1ccc(C(=O)N(C)N(C)C(=O)c2cccc(-c3csc4c(F)cccc34)n2)cc1OC: 10 to 100 µM
COc1ccc(C(=O)NCC(=O)c2ccc(OC)c(-c3ccc(C(=O)N4CCCCC4)cc3)n2)cc1OC: 10 to 100 µM
COc1ccc(C(=O)NCC(=O)c2cn(C)c(-c3csc4c(F)cccc34)n2)cc1OC: 10 to 100 µM
CNC(=O)COc1ccc(C(=O)NCC(=O)c2ccc(OC)c(-c3ccc(F)c(Cl)c3)n2)cc1OC: 10 to 100 µM
COc1cc(OCCC(=O)N(C)/N=C/c2csc3c(F)cccc23)ccc1OCCO: > 100 µM

Documented CC50 at 5 days of COc1cc(C(=O)NCC(=O)c2ccc(OC)c(-c3ccc(Cl)nc3)n2)ccc1OCCO : > 100 µM

CC50 at 5 days in this record for COCc1ccc(C(=O)NCC(=O)N/N=C(\C)c2csc3ccccc23)cc1OC : > 100 µM

----------
experiment: Cytotoxicity Determination; format: cell-based; conditions: human, HEp-2 cells, without addition of virus, CCK-8 readout, bins (Table 4: greater than 100 μM; Table 5: equal to or less than 100 μM and greater than 10 μM), read-out: 50% cytotoxicity concentration (CC50)
Test Readout: CC50 at 5 days

CCC/C(=N\NC(=O)CNC(=O)c1ccc(OC)c(OC)c1)c1csc2ccccc12: > 100 µM
CCNc1ccc(C(=O)NCC(=O)N/N=C(\C)c2csc3ccccc23)cc1OC: > 100 µM
COc1cc(C(=O)NCC(=O)c2cccc(-c3csc4c(F)cccc34)n2)ccc1O[C@H]1CC[C@@H](O)CC1: > 100 µM
COc1cc(C(=O)CNC(=O)c2ccc(OCCO)c(OC)c2)nc(-c2csc3c(F)cccc23)c1: > 100 µM
COc1cc(C(=O)N[C@@H](CO)C(=O)c2ccc(OC)c(-c3ccc(F)c(Cl)c3)n2)ccc1OCCO: 10 to 100 µM

Value of measured CC50 at 5 days for the entry C/C(=N\NC(=O)CNC(=O)c1ccc(N2CCCCC2)cc1)c1csc2ccccc12 : > 100 µM

# molecule COc1ccc(C(=O)NCC(=O)c2ncc(-c3csc4c(F)cccc34)n2C)cc1OC ; its CC50 at 5 days = 10 to 100 µM

Lab book: CC50 at 5 days of COc1ccc(C(=O)NCC(=O)c2ccc(OC)c(-c3ccc(C)cc3)n2)cc1OC noted as > 100 µM

Kindly note the recorded CC50 at 5 days for COc1ccc(C(=O)NCC(=O)c2ccc(OC)c(-c3csc4ccccc34)n2)cc1OC , which is > 100 µM

Memo: COc1ccc(C(=O)NCC(=O)N/N=C(\C)c2nc3ccccc3s2)cc1OC , reported CC50 at 5 days: 10 to 100 µM
